Test: qHTS assay to identify small molecule antagonists of the estrogen related receptor (ERR) signaling pathway from Tox21 library (AID 1224848); note: nearly all actives have a fitted effect of over 50% in size
Details: ERR reporter cell line, luciferase antagonist mode, 18 h; series mostly up to 92.4 µM
Description: U.S. Tox21 Program National Center for Advancing Translational Sciences [NCATS] NIH Chemical Genomics Center [NCGC] U.S. Environmental Protection Agency [EPA] National Institutes of Environmental Health Sciences [NIEHS] National Toxicology Program [NTP] U.S. Food and Drug Administration [FDA] Tox21 Assay Overview: Estrogen related receptors (ERRs), the first orphan nuclear receptors discovered, play an important role in the control of cellular energy metabolism. […]
Results filed as inconclusive are left out. The source made the active and inactive calls. Calls come from the whole dose curve; as a rule, active = well fitted inhibition curve with a large enough effect in the repeat runs; inconclusive = weak or mixed curves; inactive = no such curve, though single readings can be large or run the other way.
Labels: active, inactive

>  <compound>
Nc1ccc(-c2ccc(F)cc2)cc1

>  <label-class>
inactive

$$$$
>  <compound>
O=Cc1ccc(Cl)c([N+](=O)[O-])c1

>  <label-class>
active

$$$$
>  <compound>
COc1ccc(C(=O)c2ccc(C)cc2)c(O)c1

>  <label-class>
inactive

$$$$
>  <compound>
CC(COc1ccccc1)NC(C)C(O)c1ccc(O)cc1 (stereo unspecified)

>  <label-class>
inactive

$$$$
>  <compound>
CC(C)Oc1ccccc1O

>  <label-class>
inactive

$$$$
>  <compound>
CC(=O)Nc1ccccc1O

>  <label-class>
inactive

$$$$
>  <compound>
C[C@H](N)C(=O)N[C@@H](C)C(=O)NC1[C@H]2CN(c3nc4c(cc3F)c(=O)c(C(=O)O)cn4-c3ccc(F)cc3F)C[C@@H]12 (stereo partly specified)

>  <label-class>
inactive

$$$$
>  <compound>
Cc1c(-c2cccnc2)c2ccccc2n1CCCCC(=O)O

>  <label-class>
inactive

$$$$
>  <compound>
C=Cc1ccc(C=C)cc1

>  <label-class>
inactive

$$$$
>  <compound>
CC(=O)Oc1cccc2c1C(=O)c1c(OC(C)=O)cc(C(=O)O)cc1C2=O

>  <label-class>
active

$$$$
>  <compound>
CCCCCO

>  <label-class>
inactive

$$$$
>  <compound>
CC(=O)S[C@H](C(=O)N[C@H]1Cc2ccccc2[C@H]2CCC[C@@H](C(=O)O)N2C1=O)C(C)C

>  <label-class>
inactive

$$$$
>  <compound>
CNc1ccccc1

>  <label-class>
inactive

$$$$
>  <compound>
CCCC(=O)OCc1ccccc1

>  <label-class>
inactive

$$$$
>  <compound>
N#C[C@@H]1CC(F)(F)CN1C(=O)CNC1CC2CCC(C1)N2c1ncccn1 (stereo partly specified)

>  <label-class>
inactive

$$$$
>  <compound>
CC/C=C/CCO

>  <label-class>
inactive

$$$$

* * *

Molecular target: Cytochrome P450 3A4 (Homo sapiens)
Assay: Cytochrome P450 Family 3 Subfamily A Member 4 (CYP3A4) small molecule antagonists: luciferase reporter qHTS assay (AID 1671201); note: nearly all actives have a fitted effect of over 50% in size
Conditions: P450-Glo CYP3A4 enzyme, luciferin luminescence, 1 h; series mostly up to 115 µM
Records with an inconclusive call do not appear. Calls of active or inactive are those of the source. The call rests on the fitted dose curve; in most records, active means well fitted inhibition curve with a large enough effect in the repeat runs; inconclusive means weak or mixed curves; inactive means no such curve, though single readings can be large or run the other way.

>  <compound>
S=c1[nH][nH]c(=S)s1

>  <measurement-target>
Cytochrome P450 3A4 (Homo sapiens)

>  <outcome>
inactive

$$$$
>  <compound>
O=[N+]([O-])c1ccc(Cl)cc1Cl

>  <measurement-target>
Cytochrome P450 3A4 (Homo sapiens)

>  <outcome>
inactive

$$$$
>  <compound>
C=CC(C)CCC=C(C)C (stereo not drawn)

>  <measurement-target>
Cytochrome P450 3A4 (Homo sapiens)

>  <outcome>
inactive

$$$$
